- system: purified human HDAC6 (Homo sapiens, UniProt Q9UBN7)
- Construct: purchased BPS Bioscience 5006
- Sequence (Q9UBN7 1-1215): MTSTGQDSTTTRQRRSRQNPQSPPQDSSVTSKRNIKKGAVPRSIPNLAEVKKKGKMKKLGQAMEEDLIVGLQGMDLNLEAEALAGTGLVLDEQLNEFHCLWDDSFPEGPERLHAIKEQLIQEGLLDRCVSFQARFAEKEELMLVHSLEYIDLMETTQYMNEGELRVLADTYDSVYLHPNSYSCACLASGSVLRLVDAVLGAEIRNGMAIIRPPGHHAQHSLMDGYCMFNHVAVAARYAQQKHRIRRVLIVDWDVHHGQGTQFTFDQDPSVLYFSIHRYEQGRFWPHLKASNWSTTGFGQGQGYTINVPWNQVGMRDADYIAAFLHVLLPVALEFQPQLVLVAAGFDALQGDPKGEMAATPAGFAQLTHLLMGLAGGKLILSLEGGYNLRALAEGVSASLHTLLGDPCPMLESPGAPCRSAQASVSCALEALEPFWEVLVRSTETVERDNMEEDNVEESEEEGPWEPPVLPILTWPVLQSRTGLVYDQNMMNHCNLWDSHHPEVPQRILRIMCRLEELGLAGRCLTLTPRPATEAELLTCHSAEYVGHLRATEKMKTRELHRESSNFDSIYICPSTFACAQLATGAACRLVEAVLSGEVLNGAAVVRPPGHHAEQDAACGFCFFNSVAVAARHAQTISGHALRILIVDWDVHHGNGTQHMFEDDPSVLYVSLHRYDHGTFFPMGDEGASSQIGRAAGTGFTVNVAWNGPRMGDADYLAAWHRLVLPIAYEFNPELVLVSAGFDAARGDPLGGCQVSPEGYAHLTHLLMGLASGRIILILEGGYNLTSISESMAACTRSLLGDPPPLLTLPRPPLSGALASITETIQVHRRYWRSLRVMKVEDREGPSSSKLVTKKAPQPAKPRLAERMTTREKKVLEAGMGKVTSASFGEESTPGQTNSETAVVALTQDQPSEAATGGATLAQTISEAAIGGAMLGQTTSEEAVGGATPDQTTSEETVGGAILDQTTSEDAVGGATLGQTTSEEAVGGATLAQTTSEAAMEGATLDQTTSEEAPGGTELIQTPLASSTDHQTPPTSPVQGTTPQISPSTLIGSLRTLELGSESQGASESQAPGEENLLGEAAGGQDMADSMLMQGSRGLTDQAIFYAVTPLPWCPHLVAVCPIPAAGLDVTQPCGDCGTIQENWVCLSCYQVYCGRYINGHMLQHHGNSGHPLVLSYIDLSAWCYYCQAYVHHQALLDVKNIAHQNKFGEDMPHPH
- assay.overview: HDAC6 Enzyme Assay
- Format: biochemical
- condition: HDAC6 inhibition at a compound concentration of 0.412 μM; read-out: Percent Inhibition at 0.412 μM
- Experimental: To measure the inhibition of HDAC6 activity, purified human HDAC6 (BPS Bioscience; Cat. No. 5006) is incubated with substrate Ac-Arg-Gly-Lys(Ac)-AMC peptide (Bachem Biosciences; Cat. No. I-1925) for 1 hour at 30° C. in the presence of test compounds or vehicle DMSO control. […] Concentration response curves are generated by calculating the fluorescence increase in test compound-treated samples relative to DMSO-treated controls, and enzyme inhibition (IC50) values are determined from those curves.

compound | system | u | inhibition at 0.412 µM
O=C(NO)C1CCc2cc(-c3ccncc3)ccc2C1 (stereo not shown) | purified human HDAC6 (Homo sapiens, UniProt Q9UBN7) | % | 80
CC1(C(=O)Nc2ccc3c(c2)CCC(C(=O)NO)C3)CCNCC1 (stereo not shown) | purified human HDAC6 (Homo sapiens, UniProt Q9UBN7) | % | 74
CC(C)c1cccc(Oc2ccc3c(c2)CC(C(=O)NO)CC3)c1 (stereo not shown) | purified human HDAC6 (Homo sapiens, UniProt Q9UBN7) | % | 74
CN(C)CCOc1cccc(Oc2ccc3c(c2)CC(C(=O)NO)CC3)c1 (stereo not shown) | purified human HDAC6 (Homo sapiens, UniProt Q9UBN7) | % | 78
COc1ccc(-c2ccc3c(c2)CC(C(=O)NO)CC3)cc1 (stereo not shown) | purified human HDAC6 (Homo sapiens, UniProt Q9UBN7) | % | 79
O=C(NO)C1CCc2ccc(-c3ccc(N4CCOCC4)nc3)cc2C1 (stereo not shown) | purified human HDAC6 (Homo sapiens, UniProt Q9UBN7) | % | 82
O=C(NO)C1CCc2ccc(-c3cccc(OCc4ccccc4)c3)cc2C1 (stereo not shown) | purified human HDAC6 (Homo sapiens, UniProt Q9UBN7) | % | 73
O=C(NO)C1CCc2ccccc2C1 (stereo not shown) | purified human HDAC6 (Homo sapiens, UniProt Q9UBN7) | % | 33
O=C(NO)C1CCc2ccc(-c3ccc(F)c(C(=O)N4CCCC4)c3)cc2C1 (stereo not shown) | purified human HDAC6 (Homo sapiens, UniProt Q9UBN7) | % | 89
O=C(NO)C1CCc2ccc(-c3cccc(Cl)c3)cc2C1 (stereo not shown) | purified human HDAC6 (Homo sapiens, UniProt Q9UBN7) | % | 82
O=C(NO)C1CCc2ccc(Oc3ccc(NCc4ccc(Cl)cc4)cc3)cc2C1 (stereo not shown) | purified human HDAC6 (Homo sapiens, UniProt Q9UBN7) | % | 64
CC(C)(C)C(=O)Nc1cccc(-c2ccc3c(c2)CC(C(=O)NO)CC3)c1 (stereo not shown) | purified human HDAC6 (Homo sapiens, UniProt Q9UBN7) | % | 90
CNC(=O)c1cc(F)cc(-c2ccc3c(c2)CC(C(=O)NO)CC3)c1 (stereo not shown) | purified human HDAC6 (Homo sapiens, UniProt Q9UBN7) | % | 84
COc1ccc(Nc2ccc3c(c2)CCC(C(=O)NO)C3)cc1 (stereo not shown) | purified human HDAC6 (Homo sapiens, UniProt Q9UBN7) | % | 43
O=C(NO)C1CCc2ccc(-c3ccc([N+](=O)[O-])cc3)cc2C1 (stereo not shown) | purified human HDAC6 (Homo sapiens, UniProt Q9UBN7) | % | 78
O=C(NO)C1CCc2ccc(CCc3ccccc3)cc2C1 (stereo not shown) | purified human HDAC6 (Homo sapiens, UniProt Q9UBN7) | % | 37
O=C(NO)C1CCc2ccc(-c3ccc4ccccc4c3)cc2C1 (stereo not shown) | purified human HDAC6 (Homo sapiens, UniProt Q9UBN7) | % | 73
O=C(NO)C1CCc2ccc(-c3ccc(F)c(Cl)c3)cc2C1 (stereo not shown) | purified human HDAC6 (Homo sapiens, UniProt Q9UBN7) | % | 69
O=C(NO)C1CCc2ccc(-c3cc4ccccc4[nH]3)cc2C1 (stereo not shown) | purified human HDAC6 (Homo sapiens, UniProt Q9UBN7) | % | 82

---

- system: purified human HDAC6 (Homo sapiens, UniProt Q9UBN7)
- Construct: purchased BPS Bioscience 5006
- assay.overview: HDAC6 Enzyme Assay
- Type: biochemical
- condition: HDAC6 inhibition at a compound concentration of 0.412 μM; read-out: Percent Inhibition at 0.412 μM
measured.property: inhibition at 0.412 µM (%)

compound | u | endpoint.value
CC(C)Oc1ccc(-c2ccc3c(c2)CC(C(=O)NO)CC3)cc1 (centres unmarked) | % | 66
Cn1cc(-c2cc(C(=O)Nc3ccc4c(c3)CC(C(=O)NO)CC4)cc(C(F)(F)F)c2)cn1 (centres unmarked) | % | 87
O=C(NO)C1CCc2ccc(Nc3cccc(Cl)c3)cc2C1 (centres unmarked) | % | 71
CC(C)(C)OC(=O)Nc1cccc(-c2ccc3c(c2)CC(C(=O)NO)CC3)c1 (centres unmarked) | % | 82
N#Cc1ccc2c(c1)CC(C(=O)NO)CC2 (centres unmarked) | % | 62

---

- system: purified human HDAC6 (Homo sapiens, UniProt Q9UBN7)
- Construct: purchased BPS Bioscience 5006
- assay.overview: HDAC6 Enzyme Assay
- Format: biochemical
- condition: HDAC6 inhibition at a compound concentration of 0.412 μM; read-out: Percent Inhibition at 0.412 μM
Binary classification by inhibition at 0.412 µM, with 70% as an inclusive lower bound for yes (1); all other cases are no (0).

molecule | classification
O=C(NO)C1CCc2ccc(-c3cnc4[nH]ccc4c3)cc2C1 (stereo not shown) | yes (1)
COc1ccc2cc(-c3ccc4c(c3)CC(C(=O)NO)CC4)ccc2c1 (stereo not shown) | yes (1)
CC(C)(C)OC(=O)Nc1ccc2c(c1)CC(C(=O)NO)CC2 (stereo not shown) | no (0)
N#Cc1cc(-c2ccc3c(c2)CC(C(=O)NO)CC3)ccc1F (stereo not shown) | no (0)
O=C1CCc2c(Oc3ccc4c(c3)CCC(C(=O)NO)C4)ccnc2N1 (stereo not shown) | no (0)
COc1ccc2c(c1)CC(C(=O)NO)CC2 (stereo not shown) | no (0)
O=C(NO)C1CCc2ccc(Oc3ccccc3)cc2C1 (stereo not shown) | yes (1)
O=C(NO)C1CCc2ccc(-c3csc4ccccc34)cc2C1 (stereo not shown) | yes (1)
CC(C)COc1ccc2c(c1)CC(C(=O)NO)CC2 (stereo not shown) | no (0)
CS(=O)(=O)Nc1cccc(Oc2ccc3c(c2)CC(C(=O)NO)CC3)c1 (stereo not shown) | yes (1)
CN(C)C(=O)c1ccc(-c2ccc3c(c2)CC(C(=O)NO)CC3)cc1F (stereo not shown) | yes (1)
CNC(=O)Nc1cccc(Oc2ccc3c(c2)CC(C(=O)NO)CC3)c1 (stereo not shown) | yes (1)
O=C(NO)C1CCc2ccc(-c3ccc(S(=O)(=O)N4CCCCC4)cc3)cc2C1 (stereo not shown) | no (0)
COc1cccc(-c2ccc3c(c2)CC(C(=O)NO)CC3)c1 (stereo not shown) | yes (1)
O=C(NO)C1CCc2ccc(Oc3cccc(NCc4ccccc4)c3)cc2C1 (stereo not shown) | yes (1)
O=C(NO)C1CCc2ccc(Oc3cccc(NC(=O)C4CC4)c3)cc2C1 (stereo not shown) | yes (1)
O=C(NO)C1CCc2ccc(-c3ccc(OCc4ccccc4)cc3)cc2C1 (stereo not shown) | no (0)
O=C(NO)C1CCc2ccc(-c3ccc4c(c3)CCO4)cc2C1 (stereo not shown) | yes (1)
O=C(NO)C1CCc2cc(F)c(Oc3ccnc(NC(=O)C4CC4)c3)cc2C1 (stereo not shown) | yes (1)
